- TARGET: NLPPp (Phytophthora nicotianae, UniProt Q9AT28)
- Construct: made in house; host or cells: Pichia pastoris
- Sequence (Q9AT28 20-237): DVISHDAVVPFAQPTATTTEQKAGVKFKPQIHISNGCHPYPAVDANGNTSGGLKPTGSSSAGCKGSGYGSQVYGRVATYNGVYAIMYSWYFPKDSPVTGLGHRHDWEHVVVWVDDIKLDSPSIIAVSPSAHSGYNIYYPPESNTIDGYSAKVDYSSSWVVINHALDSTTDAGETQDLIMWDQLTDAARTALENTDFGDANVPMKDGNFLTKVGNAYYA
- TEST: Tobacco leaf infiltration assay, NLPPp-induced necrosis
- Format: in vivo, Phytophthora parasitica
- EXPERIMENTAL_CONDITIONS: 400 nM NLPPp with different concentrations of compound, tobacco leaves, 24 h
RECORDED_METRIC: effect on NLPPp-induced necrosis

[[record]]
compound = "COc1ccc(Nc2ccccc2C(=O)O)cc1"
result = "inhibited"

[[record]]
compound = "Cc1ccc2occ(C3N[C@H](C(=O)O)CS3)c(=O)c2c1 (stereo partly shown)"
result = "inhibited"

[[record]]
compound = "O=C(Cc1c[nH]c2ccccc12)Nc1ccccc1CCOC(=O)Cc1c[nH]c2ccccc12"
result = "inhibited"


Data origin: paper PMC8078777
